Recorded Ki for molecules tested on Urokinase-type plasminogen activator (Homo sapiens, UniProt P00749), drawn from a number of studies.
Test readout: Ki (µM)

A selection of reference data follows.
Molecule | Assay target | Unit descriptor | Ki
COC(=O)C(Cc1cccc(C(N)N)c1)NC(=O)CNS(=O)(=O)c1ccc(C)cc1 (stereo not given) | Urokinase-type plasminogen activator (Homo sapiens, UniProt P00749) | µM | 78
N=C(N)c1ccc2cc(C(=O)Nc3ccc(C(N)=O)cc3)ccc2c1 | Urokinase-type plasminogen activator (Homo sapiens, UniProt P00749) | µM | 0.326
N=C(N)c1cc2c(O[C@@H](c3ccccc3)c3nc(-c4ccccc4)no3)cccc2s1 | Urokinase-type plasminogen activator (Homo sapiens, UniProt P00749) | µM | 0.65
COc1ccc(NC(=O)OC[C@@H](Oc2cccc3sc(C(=N)N)cc23)c2ccccc2)cc1 | Urokinase-type plasminogen activator (Homo sapiens, UniProt P00749) | µM | 1.63
N=C(N)c1cccc(CC(NS(=O)(=O)c2cccc(-c3ccncc3)c2)C(=O)N2CCC(CCN)CC2)c1 (racemic) | Urokinase-type plasminogen activator (Homo sapiens, UniProt P00749) | µM | 3.7
CCC(C)(C)C(NC(=O)[C@@H]1CCCN1C(=O)[C@H](Cc1ccc2ccccc2c1)NC(=O)OCc1ccccc1)B1O[C@@H]2CC3CC(C3(C)C)[C@]2(C)O1 (stereo not given in full) | Urokinase-type plasminogen activator (Homo sapiens, UniProt P00749) | µM | 140

(1) CSc1sc(C(=N)N)cc1-c1nc(-c2ccccc2)c(C)s1
(2) CC(C)c1cc(C(C)C)c(S(=O)(=O)N[C@@H](Cc2cccc(C(=N)N)c2)C(=O)N2CCN(C(=O)C3CCN(C(=N)N)CC3)CC2)c(C(C)C)c1
(3) CC(C)c1cc(C(C)C)c(S(=O)(=O)N[C@@H](Cc2cccc(C(=N)N)c2)C(=O)N2CCC(C(=O)NCCN=C(N)N)CC2)c(C(C)C)c1
(4) Cc1cc(Br)c(O)c(-c2[nH]c3ccc(C(=N)N)cc3c2CCc2ccccc2)c1
Query: Put these in order: smallest Ki first, largest last. Return value: ordered labels per request.
Result: 3, 2, 4, 1
(3: 0.62 µM, 2: 1.1 µM, 4: 2.3 µM, 1: 305 µM)

(I) CN(C)CCOc1ccc(NC(=O)OCC(Oc2cccc3sc(C(=N)N)cc23)c2ccccc2)cc1 (stereo not given)
(II) C=C1CCC(c2ccc(CNC(=N)N)cc2)C(=O)O1 (stereo not given)
(III) Nc1ccc2cc(NC(=O)c3ccccc3)ccc2n1
Query: Put these in order: smallest Ki first, largest last. Return value: ordered labels per request.
Result: I, II, III
